- TARGET OR TEST SYSTEM: FGFR2 V564I (Homo sapiens, UniProt P21802, V564I)
- Construct: biochemical assays using purified intracellular domains of the respective isoforms
- Sequence (P21802 399-821 V564I limits assumed): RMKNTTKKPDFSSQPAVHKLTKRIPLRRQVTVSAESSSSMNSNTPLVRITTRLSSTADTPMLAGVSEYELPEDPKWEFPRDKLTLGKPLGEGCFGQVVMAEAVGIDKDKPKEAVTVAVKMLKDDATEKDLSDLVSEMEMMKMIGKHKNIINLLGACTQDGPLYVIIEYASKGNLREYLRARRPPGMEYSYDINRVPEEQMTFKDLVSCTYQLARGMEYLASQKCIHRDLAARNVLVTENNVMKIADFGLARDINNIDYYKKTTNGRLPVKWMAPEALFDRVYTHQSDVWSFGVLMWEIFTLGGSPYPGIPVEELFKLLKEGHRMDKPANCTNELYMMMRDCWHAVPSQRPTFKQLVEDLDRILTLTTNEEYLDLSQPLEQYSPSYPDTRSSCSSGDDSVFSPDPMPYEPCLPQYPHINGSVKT
- PROCEDURE TEXT: FGFR mutant enzyme assay (HTRF KinEASE-TK)
- STUDY CONDITIONS: ATP 0.4 uM
pIC50: −log10 of the molar value.
Threshold check on pIC50: at or above 8 gives met, strictly below gives not met.

Cc1c(-c2cc(O[C@H](C)c3ccc(F)cn3)c3c(C#N)cnn3c2)cnn1C1CCS(=O)(=O)CC1: met

Could you verify whether the entry "Cc1nn(C2CCNCC2)c(C)c1-c1cc(O[C@H](C)c2ccccn2)c2c(C#N)cnn2c1" shows pIC50 of no less than 8?
met

And what about the molecule "Cc1c(-c2cc(O[C@H](C)c3ccc(Cl)cn3)c3c(C#N)cnn3c2)cnn1[C@H]1CCCNC1" ?
not met

Also check "Cc1c(-c2cc(O[C@@H](C)c3ccc(F)cn3)c3c(C#N)cnn3c2)cnn1[C@H]1CC[C@@H](O)CC1"
not met

Okay, and "Cc1c(-c2cc(O[C@H](C)c3ccc(F)cn3)c3c(C#N)cnn3c2)cnn1C1CCN(C(=O)[C@H](C)O)CC1" ?
met

Try the molecule "C[C@@H](Oc1cc(-c2cnn(C3CCN(C#N)CC3)c2N)cn2ncc(C#N)c12)c1ccc(F)cn1"
met

// query: "Cc1c(-c2cc(O[C@H](C)c3ccc(F)cn3)c3c(C#N)cnn3c2)cnn1C1CCN(C(=O)CO)CC1"
met

Next record, please: "Cc1c(-c2cc(O[C@@H](C)c3ccc(F)cn3)c3c(C#N)cnn3c2)cnn1[C@H]1CC[C@H](O)CC1"
not met

----------
- TARGET OR TEST SYSTEM: FGFR2-WT (Homo sapiens)
- Sequence (P21802 430-767 limits assumed): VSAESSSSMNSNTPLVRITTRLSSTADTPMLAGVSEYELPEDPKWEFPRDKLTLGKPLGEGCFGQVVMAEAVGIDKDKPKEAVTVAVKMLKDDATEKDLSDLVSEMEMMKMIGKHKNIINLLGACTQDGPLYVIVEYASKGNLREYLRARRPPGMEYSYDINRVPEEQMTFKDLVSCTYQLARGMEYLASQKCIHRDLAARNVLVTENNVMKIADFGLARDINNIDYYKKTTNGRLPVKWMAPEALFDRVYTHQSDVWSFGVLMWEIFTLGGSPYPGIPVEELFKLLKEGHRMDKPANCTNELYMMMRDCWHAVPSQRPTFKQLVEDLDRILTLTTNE
- PROCEDURE TEXT: Phosphorylated FGFR2-WT (pFGFR2-WT) cell assay, KATOIII cells
- STUDY CONDITIONS: 1 hour incubation, phospho FGFR2 HTRF
- Method: KATOIII cells were grown in the appropriate growth medium, IMDM supplemented with 20% fetal bovine serum. Cells were seeded into a 384-well at 1×10^5 cells/25 μL/well. […] Following the 1-hour incubation with compounds, cell lysates were prepared and phospho FGFR2 was measured using the HTRF Phospho-FGFR2 (TYR653/654) Detection Kits (CisBio, cat #64FGFR2Y6PEG). […] Plates were read on the En Vision multimode plate reader via HTRF dual wavelength detection. […]
MEASURED ENDPOINT: log10(IC50) (log10 of the value in nM)
Values are log10 of IC50 in nM.

# example entries with known answers
C[C@@H](Oc1cc(-c2ccc(N3CCN(C)[C@@H](CO)C3)nc2)cn2ncc(C#N)c12)c1ccc(F)cn1 [Compound 24]: 0.48
Cc1c(-c2cc(O[C@H](C)c3ccc(F)cn3)c3c(C#N)cnn3c2)cnn1C [Compound 21]: 1.38
C[C@@H](Oc1cc(-c2ccc(N3CC[C@@H](O)[C@H](O)C3)nc2)cn2ncc(C#N)c12)c1ccc(F)cn1 [Compound 64]: 0.60
C[C@@H](Oc1cc(-c2ccc(N3CC[C@H](O)[C@H](O)C3)nc2)cn2ncc(C#N)c12)c1ccc(F)cn1 [Compound 26]: 0.60
Cc1c(-c2cc(O[C@H](C)c3ccc(F)cn3)c3c(C#N)cnn3c2)nnn1[C@H]1CC[C@H](O)CC1 [Compound 59]: 0.76

So what's the measured log10(IC50) for this one? Cc1c(-c2cc(OC(C)c3ccc(F)cn3)c3c(C#N)cnn3c2)cnn1[C@H]1CC[C@H](O)CC1 (some centres unmarked) [Compound 51]
0.81

Next up: C[C@@H](Oc1cc(-c2cnn([C@H]3CC[C@H](O)CC3)c2N)cn2ncc(C#N)c12)c1ccc(F)cn1 [Compound 32]
0.40

Cc1c(-c2cc(O[C@H](c3ccc(F)cn3)C(F)(F)F)c3c(C#N)cnn3c2)cnn1[C@H]1CC[C@H](O)CC1 [Compound 70] , same question.
2.90

Just for reference, patent US12351581B2 is where these values come from.
